tested on: 454973-116-R2-J3-PDC spheroids, percent test/control viability; test: Anticancer human tumor 454973-116-R2-J3-PDC patient-derived pancreatic carcinoma cell line growth inhibition [CLK]; conditions: second compound 0.0316 µM; first compound 0.00949 µM; stronger effect = lower value; spheroids with HUVEC and MSC;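 further: spheroids exposed to compounds for 7 days before readout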
measurementKind: viability, T/C (%)
# number only, unit % dropped from output

Here are 5 molecules together with their reported answers.
# molecule, unitsLabel, viability, T/C
measured = [
    ("NC(=O)C(=Cn1cnc(-c2cc(C(F)(F)F)cc(C(F)(F)F)c2)n1)c1cncnc1 + CN1CCN(c2cc(C(=O)Nc3cc4cc(-c5cnn(C)c5)ccc4cn3)ccn2)CC1", "%", 93.1),
    ("CC(C)CC(NC(=O)C(Cc1ccccc1)NC(=O)c1cnccn1)B(O)O (stereo unspecified) + CNC(=O)c1ccc(Nc2nc(OC3CCCC3)c3c(-c4ccc5nc(C)oc5c4)c[nH]c3n2)c(OC)c1", "%", 3.37),
    ("CC(C)CC(NC(=O)C(Cc1ccccc1)NC(=O)c1cnccn1)B(O)O (stereo unspecified) + CN1CCN(c2cc(C(=O)Nc3cc4cc(-c5cnn(C)c5)ccc4cn3)ccn2)CC1", "%", 0.27),
    ("C=CC(=O)Nc1cc(Nc2nccc(-c3cn(C)c4ccccc34)n2)c(OC)cc1N(C)CCN(C)C + CN1CCN(c2cc(C(=O)Nc3cc4cc(-c5cnn(C)c5)ccc4cn3)ccn2)CC1", "%", 96.8),
    ("NC(=O)C(=Cn1cnc(-c2cc(C(F)(F)F)cc(C(F)(F)F)c2)n1)c1cncnc1 + CNC(=O)c1ccc(Nc2nc(OC3CCCC3)c3c(-c4ccc5nc(C)oc5c4)c[nH]c3n2)c(OC)c1", "%", 115),
]

As a next step, examine the molecule that follows.
Input line: Item C=CC(=O)Nc1cc(Nc2nccc(-c3cn(C)c4ccccc34)n2)c(OC)cc1N(C)CCN(C)C + CNC(=O)c1ccc(Nc2nc(OC3CCCC3)c3c(-c4ccc5nc(C)oc5c4)c[nH]c3n2)c(OC)c1 has what recorded viability, T/C?
Output line: 92.5
